target: MMP-14 (Homo sapiens); construct: The catalytic domain enzyme was expressed in E. coli inclusion bodies, solubilized in urea; made in house; assay: MMP-14 inhibition (in vitro Ki); format: biochemical; details: Table 9; read-out: MMP-14 Ki (IC-50)
Observed property: pKi
pKi is defined as minus the log10 of a concentration measured in mol/L.

Example entries begin here.
# Compound, Observed value
data = [
    ("O=C(NO)C1(S(=O)(=O)N2CCC(c3ccc(C#CCc4ccccc4)cn3)CC2)CCOCC1", 6.72),
    ("COCCN1CCC(C(=O)NO)(S(=O)(=O)N2CCC(c3ccc(CCC(F)(F)C(F)(F)F)cn3)CC2)CC1", 5.23),
    ("Cn1cc(-c2ccc(C3CCN(S(=O)(=O)C4(C(=O)NO)CCOCC4)CC3)nc2)cn1", 5.47),
    ("O=C(CCCCC1CCN(S(=O)(=O)C2(C(=O)NO)CCOCC2)CC1)N1CC2CCCCC2C1 (stereo not shown)", 5.27),
    ("CC(F)(F)Cc1ccc(C2CCN(S(=O)(=O)C3(C(=O)NO)CCOCC3)CC2)nc1", 5.36),
    ("O=C(NCCCCC1CCN(S(=O)(=O)C2(C(=O)NO)CCOCC2)CC1)C(=O)c1cccs1", 5.34),
    ("O=C(NO)C1(S(=O)(=O)N2CCC(c3ccc(CCc4cccs4)cn3)CC2)CCOCC1", 5.67),
    ("Cc1cnn(-c2ccc(C3CCN(S(=O)(=O)C4(C(=O)NO)CCOCC4)CC3)nc2)c1", 5.55),
]

The recorded pKi for O=C(NO)C1(S(=O)(=O)N2CCC(c3ccc(CCC4CCCC4)cn3)CC2)CCOCC1 is 5.90

The recorded pKi for O=C(NO)C1(S(=O)(=O)N2CCC(c3cnc(OCC4CC4)cn3)CC2)CCOCC1 is 5.51

The recorded pKi for O=C(CCCCC1CCN(S(=O)(=O)C2(C(=O)NO)CCOCC2)CC1)Nc1ccc(OC(F)(F)F)cc1 is 5.07

The recorded pKi for O=C(NO)C1(S(=O)(=O)N2CCC(c3ccc(-n4cccn4)cn3)CC2)CCOCC1 is 5.77

The recorded pKi for COC(=O)CCCC#Cc1ccc(C2CCN(S(=O)(=O)C3(C(=O)NO)CCOCC3)CC2)nc1 is 5.94

###

biological target: MMP-13 (Homo sapiens, UniProt P45452); construct: made in house; host or cells: baculovirus / insect cells; assay: MMP-13 inhibition (in vitro Ki); assay type: biochemical; conditions: Table 8; read-out: MMP-13 Ki
Where a name gives a salt, the structure may show the parent alone.
Observed property: pKi
pKi is defined as minus the log10 of a concentration measured in mol/L.

Example entries begin here.
# Compound, pKi
data = [
    ("CCCCOCCCC1CCN(S(=O)(=O)C2(C(=O)NO)CCOCC2)CC1 [Example A36I]", 8.11),
    ("COCCC(CCOC)(C(=O)NO)S(=O)(=O)N1CCC(c2ccc(CCC(F)(F)C(F)(F)F)cn2)CC1 [Example A61, Hydrochloride]", 9.80),
    ("O=C(NO)C1(S(=O)(=O)N2CCC(OCCCc3ccccc3)CC2)CCOCC1 [Example A36G]", 7.52),
]

The recorded pKi for O=C(NO)C1(S(=O)(=O)N2CCC(CCCCCC(F)(F)F)CC2)CCOCC1 [Example A43] is 9.24

The recorded pKi for COCCC(C(=O)NO)S(=O)(=O)N1CCC(c2ccc(CCC(F)(F)C(F)(F)F)cc2)CC1 (centres unmarked) [Example A66] is 8.89

The recorded pKi for O=C(NO)C1(S(=O)(=O)N2CCC(CCCCCCC(F)(F)C(F)(F)F)CC2)CCOCC1 [Example A51] is 9.57

The recorded pKi for O=C(NO)C1(S(=O)(=O)N2CCC(c3cnc(OCCC4CC4)cn3)CC2)CCOCC1 [Example A67] is 9.66

The recorded pKi for O=C(NO)C1(S(=O)(=O)N2CCC(CCCCOCCCC(F)(F)F)CC2)CCOCC1 [Example A40] is 9.22

Cited source for all entries: patent US20050209278A1
